MEASURED_TARGET: recombinant human DPPI (Homo sapiens (Human))
PROCEDURE_SUMMARY: Inhibition of Human DPPI (Cathepsin C)
PARTICULARS: substrate Gly-Arg-AMC, 30 min room temperature
QUANTITY_NAME: IC50 (nM)

The examples below pair each entry with its known result.
> print(dat)
                                   compound                           measured.target  result.value
1  N#C[C@H](Cc1ccc(-c2ccc3c(c2)CCNC3=O)cc1F)NC(=O)C12CCC(CC1)CN2  recombinant human DPPI (Homo sapiens (Human))           6.8
2  CS(=O)(=O)c1cc(-c2ccc(C[C@@H](C#N)NC(=O)[C@]34CCC[C@@H](CN3)C4)cc2)ccc1C#N  recombinant human DPPI (Homo sapiens (Human))          1220
3  N#C[C@H](Cc1ccc(-c2cnn(CC3CCOCC3)c2)cc1F)NC(=O)C12CCC(CC1)CN2  recombinant human DPPI (Homo sapiens (Human))          20.2

(1) CN1C(=O)Cc2ccc(-c3ccc(C[C@@H](C#N)NC(=O)C45CCOC(CCN4)C5)cc3)cc21 (some centres unmarked)
(2) CN1C(=O)Cc2ccc(-c3ccc(C[C@@H](C#N)NC(=O)C45CCC(CC4)CN5)c(F)c3)cc21
Decide: 1 or 2 , by lowest recorded IC50. Mark your selection by writing its label.
2
(2: 4.9 nM, 1: 228 nM)

----------
MEASURED_TARGET: recombinant human DPPI (Homo sapiens (Human), UniProt P53634)
Sequence (P53634 231-394): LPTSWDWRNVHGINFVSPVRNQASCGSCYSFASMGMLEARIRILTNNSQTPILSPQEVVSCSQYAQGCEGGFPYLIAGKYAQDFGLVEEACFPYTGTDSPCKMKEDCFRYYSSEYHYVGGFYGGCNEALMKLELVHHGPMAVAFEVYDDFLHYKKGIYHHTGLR
Sequence (P53634 395-463): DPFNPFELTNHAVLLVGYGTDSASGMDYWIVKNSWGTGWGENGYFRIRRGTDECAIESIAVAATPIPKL
Sequence (P53634 25-134): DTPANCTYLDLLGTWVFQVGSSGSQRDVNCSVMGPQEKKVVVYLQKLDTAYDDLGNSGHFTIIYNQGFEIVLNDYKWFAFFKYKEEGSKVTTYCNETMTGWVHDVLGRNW
PROCEDURE_SUMMARY: Inhibition of Human DPPI (Cathepsin C)
PARTICULARS: substrate Gly-Arg-AMC, 30 min room temperature
QUANTITY_NAME: IC50 (nM)

(I) CC1(C)OC(=O)c2ccc(-c3ccc(C[C@@H](C#N)NC(=O)C45CCC(CC4)CN5)c(F)c3)cc21
(II) N#C[C@H](Cc1ccc(-c2cccc(C(N)=O)c2)cc1F)NC(=O)C12CCC(CC1)CN2
(III) CN(C)S(=O)(=O)c1cccc(-c2ccc(C[C@@H](C#N)NC(=O)C34CCC(CC3)CN4)c(F)c2)c1
Order the 3 compounds from highest to lowest IC50. Return value: ordered labels per request.
II, III, I
(II: 11.2 nM, III: 6.7 nM, I: 2.2 nM)
